Target Or Test System: Muscarinic acetylcholine receptor M1 (Homo sapiens) (UniProt P11229)
Sequence (whole entry): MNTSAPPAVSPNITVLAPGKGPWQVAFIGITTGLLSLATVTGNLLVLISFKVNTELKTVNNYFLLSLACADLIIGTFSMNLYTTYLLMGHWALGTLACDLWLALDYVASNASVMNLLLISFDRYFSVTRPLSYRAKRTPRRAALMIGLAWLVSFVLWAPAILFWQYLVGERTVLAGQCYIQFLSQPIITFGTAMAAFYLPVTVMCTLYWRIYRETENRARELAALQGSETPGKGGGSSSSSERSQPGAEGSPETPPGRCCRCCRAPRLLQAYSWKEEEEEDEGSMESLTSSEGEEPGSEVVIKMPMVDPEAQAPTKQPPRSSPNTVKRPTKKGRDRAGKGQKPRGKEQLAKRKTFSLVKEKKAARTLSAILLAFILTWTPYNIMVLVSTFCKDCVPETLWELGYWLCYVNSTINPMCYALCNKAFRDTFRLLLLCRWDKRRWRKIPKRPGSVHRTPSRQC
Condition Label: HEK293, at 10 µM
Endpoint Name: inhibition (%)

Check out these entries, answers already filled in.
Compound	Target Or Test System	Scale Unit	inhibition
CN1CCC=C(C2=NOC(Sc3ccccc3)C2)C1 (stereo not drawn)	Muscarinic acetylcholine receptor M1 (Homo sapiens) (UniProt P11229)	%	49.4
O=C1CCCN1C1CC(CN2CCCCC2)=NO1 (stereo not drawn)	Muscarinic acetylcholine receptor M1 (Homo sapiens) (UniProt P11229)	%	20.7
O=C1CCCN1C1CC(CCN2CCCC2)=NO1 (stereo not drawn)	Muscarinic acetylcholine receptor M1 (Homo sapiens) (UniProt P11229)	%	20.7
O=C1CCCN1C1CC(CCN2CCCCC2)=NO1 (stereo not drawn)	Muscarinic acetylcholine receptor M1 (Homo sapiens) (UniProt P11229)	%	20.7
CCOC1CC(C2=CCCN(C)C2)=NO1 (stereo not drawn)	Muscarinic acetylcholine receptor M1 (Homo sapiens) (UniProt P11229)	%	34
O=C1CCCN1C1CC(CN2CCCC2)=NO1 (stereo not drawn)	Muscarinic acetylcholine receptor M1 (Homo sapiens) (UniProt P11229)	%	20.7

(a) CN1CCCC(C2=NOC(N3CCCC3=O)C2)C1 (stereo not drawn)
(b) CN1CCC=C(C2=NOC(CO)C2)C1 (stereo not drawn)
query: Of a and b , whose reported inhibition is numerically smaller? # respond with the chosen item's label
result: b
